Documented MIC across a set of molecules
Test system: Mycolicibacterium smegmatis
Protocol Summary: Antimicrobial activity against Mycobacterium smegmatis ATCC 14468 for 17 to 48 hrs by MTT assay
Format: functional

- Smiles Code: "CC[C@@H]1[C@@H](C)O[C@@](OC)([C@@H](C)[C@H](O)[C@H](C)[C@H]2OC(=O)/C(C)=C/C=C/[C@H](C)[C@@H]([C@@H](C)[C@@H](O)[C@H](C)[C@@]3(OC)C[C@@H](O[C@H]4C[C@H](O)[C@H](O)[C@H](C)O4)[C@H](CC)[C@@H](C)O3)OC(=O)/C(C)=C/C=C/[C@@H]2C)C[C@H]1O[C@H]1C[C@H](O)[C@H](O)[C@H](C)O1"
  MIC: "> 100 µg/mL"
- Smiles Code: "CC[C@@H]1[C@@H](C)O[C@@](OC)([C@@H](C)[C@H](O)[C@H](C)[C@H]2OC(=O)/C=C/C=C/[C@H](C)[C@@H]([C@@H](C)[C@@H](O)[C@H](C)[C@@]3(OC)C[C@@H](O[C@H]4C[C@H](O)[C@H](O)[C@H](C)O4)[C@H](CC)[C@@H](C)O3)OC(=O)/C=C/C=C/[C@@H]2C)C[C@H]1O[C@H]1C[C@H](O)[C@H](O)[C@H](C)O1"
  MIC: "> 100 µg/mL"
- Smiles Code: "CC[C@@H]1[C@@H](C)O[C@@](O)([C@@H](C)[C@H](O)[C@H](C)[C@H]2OC(=O)/C=C/C=C/[C@H](C)[C@@H]([C@@H](C)[C@@H](O)[C@H](C)[C@@]3(O)C[C@@H](O[C@H]4C[C@H](O)[C@H](O)[C@H](C)O4)[C@H](CC)[C@@H](C)O3)OC(=O)/C(C)=C/C=C/[C@@H]2C)C[C@H]1O[C@H]1C[C@H](O)[C@H](O)[C@H](C)O1"
  MIC: "6.25 µg/mL"
- Smiles Code: "CC[C@@H]1[C@@H](C)O[C@@](OC)([C@@H](C)[C@H](O)[C@H](C)[C@H]2OC(=O)/C=C/C=C/[C@H](C)[C@@H]([C@@H](C)[C@@H](O)[C@H](C)[C@@]3(O)C[C@@H](O[C@H]4C[C@H](O)[C@H](O)[C@H](C)O4)[C@H](CC)[C@@H](C)O3)OC(=O)/C=C/C=C/[C@@H]2C)C[C@H]1O[C@H]1C[C@H](O)[C@H](O)[C@H](C)O1"
  MIC: "> 100 µg/mL"
